The measured values listed here are drawn from the Immune Epitope Database (IEDB).

- TARGET_ENTITY: HLA-B*15:03
- ASSAY_DETAILS: IEDB peptide-MHC binding, purified MHC/competitive/radioactivity; filed as Kd, often an IC50 or EC50 that approximates it; bounds were set here for any values at or beyond the usual limits of such assays
- REPORTED_CONDITIONS: source organism: Vaccinia virus WR
pKd: −log10 of the molar value.
Grouping rule (pKd): low class (below 7), middle class (7 to below 8), high class (8 or more)

{"PRIMARY_SEQUENCE": "KLTSTETSF", "GROUP": "middle class"}
{"PRIMARY_SEQUENCE": "ITLTNVVNI", "GROUP": "middle class"}
{"PRIMARY_SEQUENCE": "FKAMWKYPF", "GROUP": "high class"}
{"PRIMARY_SEQUENCE": "HVKSTLNNA", "GROUP": "low class"}
{"PRIMARY_SEQUENCE": "IQRTYSSSI", "GROUP": "high class"}
{"PRIMARY_SEQUENCE": "LPTNEFISF", "GROUP": "middle class"}
{"PRIMARY_SEQUENCE": "FTRCAVIPF", "GROUP": "high class"}
{"PRIMARY_SEQUENCE": "IKYACKQIL", "GROUP": "low class"}
{"PRIMARY_SEQUENCE": "AVAKYFSPL", "GROUP": "low class"}

----------
- TARGET_ENTITY: HLA-A*68:02
- ASSAY_DETAILS: IEDB peptide-MHC binding, purified MHC/direct/fluorescence; filed as Kd, often an IC50 or EC50 that approximates it; bounds were set here for any values at or beyond the usual limits of such assays
- REPORTED_CONDITIONS: source organism: Zaire ebolavirus
pKd: −log10 of the molar value.
RESULT_TYPE: pKd

{"PRIMARY_SEQUENCE": "AFHQLVQVI", "RESULT_TYPE": "pKd", "OBS_VALUE": "≤ 4.70"}
{"PRIMARY_SEQUENCE": "TAAIMLASY", "RESULT_TYPE": "pKd", "OBS_VALUE": "≤ 4.70"}

----------
- TARGET_ENTITY: HLA-C*04:01
- ASSAY_DETAILS: IEDB peptide-MHC binding, purified MHC/competitive/fluorescence; filed as Kd, often an IC50 or EC50 that approximates it; bounds were set here for any values at or beyond the usual limits of such assays
- REPORTED_CONDITIONS: source organism: Hantaan virus 76-118
RESULT_TYPE: Kd

{"PRIMARY_SEQUENCE": "RYRTAVCGL", "RESULT_TYPE": "Kd", "OBS_VALUE": "≥ 5 µM"}

----------
- TARGET_ENTITY: HLA-B*08:01
- ASSAY_DETAILS: IEDB peptide-MHC binding, purified MHC/competitive/fluorescence; filed as Kd, often an IC50 or EC50 that approximates it; bounds were set here for any values at or beyond the usual limits of such assays
- REPORTED_CONDITIONS: source organism: Brucella canis ATCC 23365

{"PRIMARY_SEQUENCE": "IEVKFHPIL", "Kd / nM": 811}

----------
- TARGET_ENTITY: HLA-A*24:02
- ASSAY_DETAILS: IEDB peptide-MHC binding, purified MHC/competitive/fluorescence; bounds were set here for any values at or beyond the usual limits of such assays
- REPORTED_CONDITIONS: source organism: Sudan ebolavirus

{"PRIMARY_SEQUENCE": "ILAKPKETF", "TARGET_ENTITY": "HLA-A*24:02", "RELATION_OPERATOR": "=", "IC50 (nM)": 500}
{"PRIMARY_SEQUENCE": "LFQKAFSMP", "TARGET_ENTITY": "HLA-A*24:02", "RELATION_OPERATOR": "=", "IC50 (nM)": 2780}
{"PRIMARY_SEQUENCE": "DKFRKSSFF", "TARGET_ENTITY": "HLA-A*24:02", "RELATION_OPERATOR": "=", "IC50 (nM)": 52200}
{"PRIMARY_SEQUENCE": "TVTGILGSL", "TARGET_ENTITY": "HLA-A*24:02", "RELATION_OPERATOR": "≥", "IC50 (nM)": 76800}

----------
- TARGET_ENTITY: HLA-A*02:17
- ASSAY_DETAILS: IEDB peptide-MHC binding, purified MHC/competitive/radioactivity; filed as Kd, often an IC50 or EC50 that approximates it; bounds were set here for any values at or beyond the usual limits of such assays
- REPORTED_CONDITIONS: source organism: Dengue virus 4 Philippines/H241/1956
pKd: −log10 of the molar value.
Reported pKd by item:

{"PRIMARY_SEQUENCE": "VILAGPIPV", "pKd": 6.00}
{"PRIMARY_SEQUENCE": "KMKKKTWLV", "pKd": 7.19}
{"PRIMARY_SEQUENCE": "ILAKAIFKL", "pKd": 7.42}
{"PRIMARY_SEQUENCE": "ALPVYLMTL", "pKd": 8.75}

----------
- TARGET_ENTITY: HLA-C*04:01
- ASSAY_DETAILS: IEDB peptide-MHC binding, purified MHC/competitive/fluorescence; filed as Kd, often an IC50 or EC50 that approximates it; bounds were set here for any values at or beyond the usual limits of such assays
- REPORTED_CONDITIONS: source organism: Vibrio vulnificus YJ016
RESULT_TYPE: Kd (µM)

{"PRIMARY_SEQUENCE": "KMFNRASYF", "TARGET_ENTITY": "HLA-C*04:01", "RESULT_TYPE": "Kd", "OBS_VALUE": 0.304}

----------
- TARGET_ENTITY: HLA-A*69:01
- ASSAY_DETAILS: IEDB peptide-MHC binding, purified MHC/competitive/fluorescence; filed as Kd, often an IC50 or EC50 that approximates it; bounds were set here for any values at or beyond the usual limits of such assays
- REPORTED_CONDITIONS: source organism: Human immunodeficiency virus 1
pKd: −log10 of the molar value.

{"PRIMARY_SEQUENCE": "GLGQYIYET", "pKd": "≤ 4.70"}

----------
- TARGET_ENTITY: HLA-B*57:01
- ASSAY_DETAILS: IEDB peptide-MHC binding, purified MHC/competitive/radioactivity; filed as Kd, often an IC50 or EC50 that approximates it; bounds were set here for any values at or beyond the usual limits of such assays
- REPORTED_CONDITIONS: source organism: Dengue virus 1 Brazil/97-11/1997

{"PRIMARY_SEQUENCE": "VSSWEEVPYL", "TARGET_ENTITY": "HLA-B*57:01", "Kd [µM]": 0.384}
{"PRIMARY_SEQUENCE": "LTSREVLLLT", "TARGET_ENTITY": "HLA-B*57:01", "Kd [µM]": 0.712}

----------
- TARGET_ENTITY: HLA-A*01:01
- ASSAY_DETAILS: IEDB peptide-MHC binding, purified MHC/direct/fluorescence; filed as Kd, often an IC50 or EC50 that approximates it; bounds were set here for any values at or beyond the usual limits of such assays
- REPORTED_CONDITIONS: source organism: Cryptosporidium parvum
pKd: −log10 of the molar value.

{"PRIMARY_SEQUENCE": "RLLRMNNEN", "pKd": "≤ 4.70"}

----------
- TARGET_ENTITY: HLA-B*07:02
- ASSAY_DETAILS: IEDB peptide-MHC binding, purified MHC/competitive/fluorescence; filed as Kd, often an IC50 or EC50 that approximates it; bounds were set here for any values at or beyond the usual limits of such assays
- REPORTED_CONDITIONS: source organism: Salmonella enterica subsp. enterica serovar Typhi
RESULT_TYPE: Kd

{"PRIMARY_SEQUENCE": "LSEEANWAF", "TARGET_ENTITY": "HLA-B*07:02", "RESULT_TYPE": "Kd", "OBS_VALUE": "≥ 20 µM"}

----------
Reported Kd by item:
- TARGET_ENTITY: HLA-A*30:01
- ASSAY_DETAILS: IEDB peptide-MHC binding, purified MHC/competitive/radioactivity; filed as Kd, often an IC50 or EC50 that approximates it; bounds were set here for any values at or beyond the usual limits of such assays
- REPORTED_CONDITIONS: source organism: Dengue virus 1 Brazil/97-11/1997

{"PRIMARY_SEQUENCE": "ETWALRHPGF", "TARGET_ENTITY": "HLA-A*30:01", "RELATION_OPERATOR": "=", "Kd [µM]": 1.9}
{"PRIMARY_SEQUENCE": "SGVLWDTPSP", "TARGET_ENTITY": "HLA-A*30:01", "RELATION_OPERATOR": "≥", "Kd [µM]": 70.4}
{"PRIMARY_SEQUENCE": "EVKTCIWPK", "TARGET_ENTITY": "HLA-A*30:01", "RELATION_OPERATOR": "=", "Kd [µM]": 1.35}
